These data points were gathered from patent US20220249599A1.

Test system: Staphylococcus aureus (n = 104)
Assay: microbe, parasite or virus in culture
Format: cell-based
Details: Staphylococcus aureus (n = 104), CLSI breakpoints
Method: The clinical isolates were obtained from USA hospitals. […] Plates were incubated at 35° C. overnight.
ASSAY_ENDPOINT: % R (isolates resistant) (%)
One number for each entry, in %.

molecule="C[C@H]1COc2c(N3CCN(C)CC3)c(F)cc3c(=O)c(C(=O)O)cn1c23 [Levofloxacin]" quantitative_result=82.7

Hi there! I need % R (isolates resistant) for each item below, if you can.
1. CC(=O)NC[C@H]1CN(c2ccc(N3CCOCC3)c(F)c2)C(=O)O1 [Linezolid]
2. C[C@H]1c2cccc(O)c2C(=O)C2=C(O)[C@]3(O)C(=O)C(C(N)=O)=C(O)[C@@H](N(C)C)[C@@H]3[C@@H](O)[C@@H]21 [Doxycycline]
3. CN[C@H](CC(C)C)C(=O)N[C@H]1C(=O)N[C@@H](CC(N)=O)C(=O)N[C@H]2C(=O)N[C@H]3C(=O)N[C@H](C(=O)N[C@H](C(=O)O)c4cc(O)cc(O)c4-c4cc3ccc4O)[C@H](O)c3ccc(c(Cl)c3)Oc3cc2cc(c3O[C@@H]2O[C@H](CO)[C@@H](O)[C@H](O)[C@H]2O[C@H]2C[C@](C)(N)[C@H](O)[C@H](C)O2)Oc2ccc(cc2Cl)[C@H]1O [Vancomycin]
4. CCC[C@@H]1C[C@@H](C(=O)N[C@@H]([C@H]2O[C@H](SC)[C@H](O)[C@@H](O)[C@H]2O)[C@H](C)Cl)N(C)C1 [Clindamycin]

Response:
1.9
0
0
37.5
